Value source: ChEMBL document CHEMBL1275413

Test system: Escherichia coli
Assay: Antibacterial activity against ESBL-producing Escherichia coli assessed as resistant isolates by broth microdilution method
Assay type: functional
Could you please report measured Activity for the items listed next?
Answers are plain numbers, in %.

// worked examples, Activity included
COMPOUND | ENDPOINT_UNIT | Activity
CO/N=C(\C(=O)N[C@@H]1C(=O)N2C(C(=O)[O-])=C(C[N+]3(C)CCCC3)CS[C@H]12)c1csc(N)n1 [CEFEPIME] | % | 11.1
CO/N=C(\C(=O)N[C@@H]1C(=O)N2C(C(=O)O)=C(CSc3nc(=O)c(O)nn3C)CS[C@H]12)c1csc(N)n1 | % | 83.3

Provide Activity for all items below, preserving their order.
1. O=C(O)c1cn(C2CC2)c2cc(N3CCNCC3)c(F)cc2c1=O
2. C[C@H]1COc2c(N3CCN(C)CC3)c(F)cc3c(=O)c(C(=O)O)cn1c23.C[C@H]1COc2c(N3CCN(C)CC3)c(F)cc3c(=O)c(C(=O)O)cn1c23.O
3. C[C@H]1c2cccc(O)c2C(=O)C2=C(O)[C@]3(O)C(=O)C(C(N)=O)=C(O)[C@@H](N(C)C)[C@@H]3[C@@H](O)[C@@H]21.O
4. CC1(C)S[C@@H]2[C@H](NC(=O)[C@H](N)c3ccccc3)C(=O)N2[C@H]1C(=O)O
5. CO[C@@]1(NC(=O)Cc2cccs2)C(=O)N2C(C(=O)O)=C(COC(N)=O)CS[C@@H]21

-- reply
1: 83.3; 2: 83.3; 3: 33.3; 4: 100; 5: 16.7
